Value source: patent US20180291110A1

- assay_system: T1, human transferrin receptor (recombinant, for surface plasmon resonance) (human, UniProt P02786 89-760)
- T1 construct: also called huTfR; human transferrin receptor-biotinylated
- T1 sequence (P02786 89-760 limits assumed): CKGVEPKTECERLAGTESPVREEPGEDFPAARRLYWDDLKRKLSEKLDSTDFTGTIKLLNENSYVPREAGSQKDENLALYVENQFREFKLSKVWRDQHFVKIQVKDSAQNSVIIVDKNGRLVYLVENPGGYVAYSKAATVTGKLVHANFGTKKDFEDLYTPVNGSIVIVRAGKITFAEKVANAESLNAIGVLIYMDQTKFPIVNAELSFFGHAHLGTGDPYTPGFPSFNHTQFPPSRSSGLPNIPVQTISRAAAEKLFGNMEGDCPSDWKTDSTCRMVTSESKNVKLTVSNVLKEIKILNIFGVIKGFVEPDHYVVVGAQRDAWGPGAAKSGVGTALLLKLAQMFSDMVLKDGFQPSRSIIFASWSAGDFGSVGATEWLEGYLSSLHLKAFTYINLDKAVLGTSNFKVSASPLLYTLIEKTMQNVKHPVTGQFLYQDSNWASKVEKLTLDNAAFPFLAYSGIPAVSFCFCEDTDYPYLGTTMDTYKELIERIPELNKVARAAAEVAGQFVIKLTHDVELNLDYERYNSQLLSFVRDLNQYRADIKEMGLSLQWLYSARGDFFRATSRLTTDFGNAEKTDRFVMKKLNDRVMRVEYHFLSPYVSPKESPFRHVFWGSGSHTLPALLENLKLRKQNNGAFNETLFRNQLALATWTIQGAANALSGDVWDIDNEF
- protocol_text: SPR 25C

>  <binder>
2/99 VH9/VL7 (antibody, V domains shown) VH: QQLLESGGGLVQPGGSLRLSCAASGFTFSSYAMSWVRQAPGKGLEWVGYIWSGGSTDYADSVKGRFTISRDNSKNTLYLQMNSLRAEDTAVYYCAKRYGTSYPDYGDANGFDPWGQGTLVTVSS VL: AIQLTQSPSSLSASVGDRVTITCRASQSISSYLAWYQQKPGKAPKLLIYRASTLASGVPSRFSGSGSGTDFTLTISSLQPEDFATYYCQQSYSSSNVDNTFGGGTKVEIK

>  <unit>
s⁻¹

>  <koff>
0.00761

$$$$
>  <binder>
2/99 VH13/VL10 (antibody, V domains shown) VH: QVQLQESGPGLVKPSETLSLTCTVSGFSLSSYAMSWIRQPPGKGLEWIGYIWSGGSTDYNPSLKSRVTISVDTSKNQVSLKLSSVTAADTAVYYCARRYGTSYPDYGDANGFDPWGQGTLVTVSS VL: DIQMTQSPSSLSASVGDRVTITCRASQSISSYLSWYQQKPGKAPKLLIYRASTLASGVPSRFSGSRSGTDFTLTISSLQPEDFATYYCQQSYSSSNVDNTFGGGTKVEIK

>  <unit>
s⁻¹

>  <koff>
0.00589

$$$$
>  <binder>
2/99 VH22/VL8 (antibody, V domains shown) VH: QSMQESGPGLVKPSQTLSLTCTVSGFSLSSYAMSWVRQHPGKGLEWIGYIWSGGSTDYASWAKSRVTISVDTSKNQVSLKLSSVTAADTAVYYCARRYGTSYPDYGDANGFDPWGQGTLVTVSS VL: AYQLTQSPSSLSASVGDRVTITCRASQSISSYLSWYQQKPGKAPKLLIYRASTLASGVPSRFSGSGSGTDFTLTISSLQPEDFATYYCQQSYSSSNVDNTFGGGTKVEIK

>  <unit>
s⁻¹

>  <koff>
0.00165

$$$$
